Molecular target: human PD-L1 (human) (UniProt Q9NZQ7)
Sequence (Q9NZQ7 19-290): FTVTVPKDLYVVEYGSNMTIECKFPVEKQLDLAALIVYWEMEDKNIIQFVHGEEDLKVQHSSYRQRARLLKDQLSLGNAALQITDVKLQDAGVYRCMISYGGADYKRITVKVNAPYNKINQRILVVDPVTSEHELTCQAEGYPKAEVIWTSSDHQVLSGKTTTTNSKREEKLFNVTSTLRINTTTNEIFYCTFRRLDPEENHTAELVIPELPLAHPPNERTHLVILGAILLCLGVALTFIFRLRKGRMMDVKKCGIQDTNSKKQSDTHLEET
Outcome measure: RLU at 5.0 nM: Fold Increase over WT CD80-IgV-Fc (fold)
Give the number; fold is assumed, so skip it.

Lab book: RLU at 5.0 nM: Fold Increase over WT CD80-IgV-Fc of CD80 IgV-Fc E35D/M47V/N48K/V68M/A71G/L85M (Fc fusion) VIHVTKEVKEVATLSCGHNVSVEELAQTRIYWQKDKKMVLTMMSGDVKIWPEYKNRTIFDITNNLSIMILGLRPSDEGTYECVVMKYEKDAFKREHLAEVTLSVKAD noted as 3.6

Lab book: RLU at 5.0 nM: Fold Increase over WT CD80-IgV-Fc of CD80 IgV-Fc H18Y/E35D/M47V/V68M/L85M (Fc fusion) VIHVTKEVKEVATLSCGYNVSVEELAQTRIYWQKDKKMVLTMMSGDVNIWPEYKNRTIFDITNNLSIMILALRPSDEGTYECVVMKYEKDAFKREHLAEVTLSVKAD noted as 2.5

Lab book: RLU at 5.0 nM: Fold Increase over WT CD80-IgV-Fc of CD80 IgV-Fc E35D/M47L/Y53F/V68M/A71G/K93R/E95V (Fc fusion) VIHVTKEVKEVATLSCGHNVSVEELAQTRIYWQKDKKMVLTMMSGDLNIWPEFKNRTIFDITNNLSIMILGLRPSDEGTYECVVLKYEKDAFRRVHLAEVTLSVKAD noted as 3.9

Lab book: RLU at 5.0 nM: Fold Increase over WT CD80-IgV-Fc of CD80 IgV-Fc T13R/Q33R/E35D/M38I/M47L/V68M/E95V/L97Q (Fc fusion) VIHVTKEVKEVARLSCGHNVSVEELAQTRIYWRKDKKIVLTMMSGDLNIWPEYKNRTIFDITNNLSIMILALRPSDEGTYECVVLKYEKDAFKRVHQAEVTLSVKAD noted as 2.5
